- target-under-test: HLA-A02.01 (Homo sapiens, UniProt P04439, D140Y/D185E/D98H/E176V/E277Q/G131W/G231S/I119V/I121R/I166T/I218V/L300P/L318F/N151K/N90K/P208A/P217A/Q86G/Q94H/R138H/R169H/T345S)
- assay: Class I MHC peptide binding affinity (displacement of radiolabeled reference peptide)
- study-conditions: allele A02.01; read-out: Observed Affinity (IC50; (nM))
Where a SMILES comes first, the peptide text is derived from it.
Just a reminder that ties go to criterion not met: only IC50 strictly below 700 nM counts as criterion met.

Example cases with answers are listed next.
CC[C@H](C)[C@H](N)C(=O)N[C@@H](CC(C)C)C(=O)N[C@@H](CCSC)C(=O)N[C@@H](CCC(=O)O)C(=O)N[C@@H](CC(C)C)C(=O)N[C@@H](CCSC)C(=O)N[C@@H](C)C(=O)NCC(=O)NCC(=O)N[C@@H](CC(=O)O)C(=O)O (H-ILMELMAGGD-OH; N-terminus and C-terminus assumed) : criterion not met
CSCC[C@H](NC(=O)[C@H](CCCNC(=N)N)NC(=O)[C@H](CCCNC(=N)N)NC(=O)[C@H](Cc1ccc(O)cc1)NC(=O)[C@H](CC(=O)O)NC(=O)[C@H](Cc1c[nH]c2ccccc12)NC(=O)[C@H](CO)NC(=O)[C@H](CO)NC(=O)[C@H](CC(C)C)NC(=O)[C@@H](N)Cc1ccccc1)C(=O)O (H-FLSSWDYRRM-OH; N-terminus and C-terminus assumed) : criterion met
CC(C)C[C@H](NC(=O)[C@H](CC(C)C)NC(=O)[C@H](CC(=O)O)NC(=O)[C@H](CC(N)=O)NC(=O)[C@H](CC(C)C)NC(=O)[C@@H]1CCCN1C(=O)[C@@H](NC(=O)[C@@H](NC(=O)[C@@H](N)CC(N)=O)C(C)C)C(C)C)C(=O)O (H-NVVPLNDLL-OH; N-terminus and C-terminus assumed) : criterion not met

Query: Hello, I'm reviewing records and need to know if IC50 of CC(C)C[C@H](NC(=O)[C@@H](NC(=O)[C@H](CO)NC(=O)[C@@H]1CCCN1C(=O)[C@H](CC(C)C)NC(=O)[C@H](Cc1ccccc1)NC(=O)[C@@H](NC(=O)[C@H](Cc1ccc(O)cc1)NC(=O)[C@@H](NC(=O)CN)C(C)C)[C@@H](C)O)[C@@H](C)O)C(=O)O (H-GVYTFLPSTL-OH; N-terminus and C-terminus assumed) is below 700 nM. Could you check?
Response: criterion not met

Query: Below 700 nM on IC50? Entry CC[C@H](C)[C@H](NC(=O)[C@@H]1CCCN1C(=O)[C@H](CCCNC(=N)N)NC(=O)[C@H](CCC(N)=O)NC(=O)[C@H](CC(N)=O)NC(=O)[C@H](CCSC)NC(=O)CN)C(=O)N[C@@H](CC(C)C)C(=O)N[C@H](C(=O)O)[C@@H](C)O (H-GMNQRPILT-OH; N-terminus and C-terminus assumed)
Response: criterion not met

Query: Item CSCC[C@H](NC(=O)[C@H](CC(C)C)NC(=O)[C@H](CCC(N)=O)NC(=O)[C@@H](N)CCSC)C(=O)N1CCC[C@H]1C(=O)N[C@@H](Cc1ccccc1)C(=O)NCC(=O)N[C@@H](CS)C(=O)N[C@@H](CC(C)C)C(=O)O : IC50 beneath 700 nM, strictly?
Response: criterion met

Query: I wonder whether CC[C@H](C)[C@H](NC(=O)[C@@H](N)CC(C)C)C(=O)N[C@H](C(=O)N[C@@H](CO)C(=O)N[C@@H](CCCNC(=N)N)C(=O)N[C@H](C(=O)N[C@@H](CC(C)C)C(=O)N[C@@H](CC(C)C)C(=O)N[C@@H](CC(C)C)C(=O)O)[C@@H](C)O)C(C)C has IC50 below 700 nM. Can you tell?
Response: criterion met

Query: # TODO verify IC50 < 700 nM strictly for this compound: CC(C)C[C@H](NC(=O)[C@@H](N)CC(C)C)C(=O)N[C@@H](C)C(=O)N[C@@H](Cc1ccccc1)C(=O)N[C@@H](Cc1c[nH]c2ccccc12)C(=O)N[C@@H](CC(=O)O)C(=O)N[C@@H](CO)C(=O)N[C@@H](CCC(N)=O)C(=O)N[C@H](C(=O)O)C(C)C (H-LLAFWDSQV-OH; N-terminus and C-terminus assumed)
Response: criterion met

Query: Strictly below 700 nM in IC50? CC(C)C[C@H](NC(=O)[C@H](CCCNC(=N)N)NC(=O)[C@@H](NC(=O)[C@H](CC(C)C)NC(=O)[C@@H](N)CO)C(C)C)C(=O)N[C@@H](CO)C(=O)N[C@@H](CO)C(=O)N[C@@H](CS)C(=O)N[C@H](C(=O)O)C(C)C (H-SLVRLSSCV-OH; N-terminus and C-terminus assumed)
Response: criterion met

Query: Identify whether the compound CC[C@H](C)[C@H](NC(=O)[C@H](CC(C)C)NC(=O)[C@H](CCC(N)=O)NC(=O)[C@@H](N)C(C)C)C(=O)N[C@@H](CCSC)C(=O)N[C@@H](CCC(N)=O)C(=O)N[C@@H](CC(C)C)C(=O)N[C@@H](CCSC)C(=O)N1CCC[C@H]1C(=O)N[C@@H](Cc1ccccc1)C(=O)O records IC50 below 700 nM.
Response: criterion not met

Query: In the record for CC[C@H](C)[C@H](NC(=O)[C@H](CC(C)C)NC(=O)[C@@H](N)CS)C(=O)N[C@H](C(=O)N[C@@H](CO)C(=O)N[C@@H](CCCNC(=N)N)C(=O)N[C@H](C(=O)N[C@@H](CC(C)C)C(=O)N[C@@H](CC(C)C)C(=O)N[C@@H](CC(C)C)C(=O)O)[C@@H](C)O)C(C)C , is IC50 less than 700 nM?
Response: criterion not met

Query: Just wondering, is IC50 of CC[C@H](C)[C@H](N)C(=O)N[C@@H](CCSC)C(=O)N[C@@H](CCC(N)=O)C(=O)N[C@@H](CC(C)C)C(=O)N[C@@H](CCSC)C(=O)N1CCC[C@H]1C(=O)N[C@@H](Cc1ccccc1)C(=O)NCC(=O)N[C@@H](CS)C(=O)O (H-IMQLMPFGC-OH; N-terminus and C-terminus assumed) below 700 nM?
Response: criterion not met

Query: Is IC50 of CC(C)C[C@H](NC(=O)[C@H](CO)NC(=O)[C@H](CCCNC(=N)N)NC(=O)[C@H](Cc1c[nH]c2ccccc12)NC(=O)[C@H](CCC(N)=O)NC(=O)[C@@H](NC(=O)CNC(=O)[C@H](C)NC(=O)[C@H](CCC(N)=O)NC(=O)[C@H](C)N)C(C)C)C(=O)O (H-AQAGVQWRSL-OH; N-terminus and C-terminus assumed) strictly below 700 nM?
Response: criterion met

All figures here come from patent US20220282217A1.
